Reference source: BigSolDB 2.1

assaySetup: in n-octanol, 278.15 K
valueKind: solubility (mole fraction)

| smilesText | recordedResult |
| --- | --- |
| CC(C)N1C(=O)N(c2ccccc2)CSC1=NC(C)(C)C | 0.0114 |

* * *

assaySetup: in ethyl acetate, 318.15 K
valueKind: solubility (mole fraction)

| smilesText | recordedResult |
| --- | --- |
| CC(C)N1C(=O)N(c2ccccc2)CSC1=NC(C)(C)C | 0.187 |

* * *

assaySetup: in toluene, 273.15 K

| smilesText | solubility (mole fraction) |
| --- | --- |
| CC(C)N1C(=O)N(c2ccccc2)CSC1=NC(C)(C)C | 0.053 |

* * *

assaySetup: in acetone, 308.15 K
valueKind: solubility (mole fraction)

| smilesText | recordedResult |
| --- | --- |
| CC(C)N1C(=O)N(c2ccccc2)CSC1=NC(C)(C)C | 0.096 |

* * *

assaySetup: in acetonitrile, 308.15 K

| smilesText | solubility (mole fraction) |
| --- | --- |
| CC(C)N1C(=O)N(c2ccccc2)CSC1=NC(C)(C)C | 0.0354 |

* * *

assaySetup: in DMF, 298.15 K
valueKind: solubility (mole fraction)

| smilesText | valueKind | recordedResult |
| --- | --- | --- |
| CC(C)N1C(=O)N(c2ccccc2)CSC1=NC(C)(C)C | solubility (mole fraction) | 0.0871 |

* * *

assaySetup: in methanol, 283.15 K

| smilesText | solubility (mole fraction) |
| --- | --- |
| CC(C)N1C(=O)N(c2ccccc2)CSC1=NC(C)(C)C | 0.0064 |

* * *

assaySetup: in acetone, 293.15 K

| smilesText | solubility (mole fraction) |
| --- | --- |
| CC(C)N1C(=O)N(c2ccccc2)CSC1=NC(C)(C)C | 0.0593 |

* * *

assaySetup: in isopropanol, 278.15 K

| smilesText | solubility (mole fraction) |
| --- | --- |
| CC(C)N1C(=O)N(c2ccccc2)CSC1=NC(C)(C)C | 0.00785 |

* * *

assaySetup: in n-butanol, 283.15 K

| smilesText | solubility (mole fraction) |
| --- | --- |
| CC(C)N1C(=O)N(c2ccccc2)CSC1=NC(C)(C)C | 0.0127 |

* * *

assaySetup: in toluene, 298.15 K

| smilesText | solubility (mole fraction) |
| --- | --- |
| CC(C)N1C(=O)N(c2ccccc2)CSC1=NC(C)(C)C | 0.128 |

* * *

assaySetup: in ethanol, 303.15 K
valueKind: solubility (mole fraction)

| smilesText | valueKind | recordedResult |
| --- | --- | --- |
| CC(C)N1C(=O)N(c2ccccc2)CSC1=NC(C)(C)C | solubility (mole fraction) | 0.0228 |

* * *

assaySetup: in n-butanol, 288.15 K

| smilesText | solubility (mole fraction) |
| --- | --- |
| CC(C)N1C(=O)N(c2ccccc2)CSC1=NC(C)(C)C | 0.0167 |

* * *

assaySetup: in ethanol, 308.15 K

| smilesText | solubility (mole fraction) |
| --- | --- |
| CC(C)N1C(=O)N(c2ccccc2)CSC1=NC(C)(C)C | 0.0276 |

* * *

assaySetup: in n-propanol, 313.15 K
valueKind: solubility (mole fraction)

| smilesText | valueKind | recordedResult |
| --- | --- | --- |
| CC(C)N1C(=O)N(c2ccccc2)CSC1=NC(C)(C)C | solubility (mole fraction) | 0.0528 |

* * *

assaySetup: in water, 303.15 K

| smilesText | solubility (mole fraction) |
| --- | --- |
| CC(C)N1C(=O)N(c2ccccc2)CSC1=NC(C)(C)C | 8.54e-05 |

* * *

assaySetup: in n-octanol, 283.15 K

| smilesText | solubility (mole fraction) |
| --- | --- |
| CC(C)N1C(=O)N(c2ccccc2)CSC1=NC(C)(C)C | 0.0152 |

* * *

assaySetup: in ethanol, 298.15 K

| smilesText | solubility (mole fraction) |
| --- | --- |
| CC(C)N1C(=O)N(c2ccccc2)CSC1=NC(C)(C)C | 0.0182 |

* * *

assaySetup: in n-propanol, 293.15 K

| smilesText | solubility (mole fraction) |
| --- | --- |
| CC(C)N1C(=O)N(c2ccccc2)CSC1=NC(C)(C)C | 0.019 |

* * *

assaySetup: in water, 283.15 K
valueKind: solubility (mole fraction)

| smilesText | recordedResult |
| --- | --- |
| CC(C)N1C(=O)N(c2ccccc2)CSC1=NC(C)(C)C | 4.18e-05 |

* * *

assaySetup: in n-butanol, 308.15 K
valueKind: solubility (mole fraction)

| smilesText | valueKind | recordedResult |
| --- | --- | --- |
| CC(C)N1C(=O)N(c2ccccc2)CSC1=NC(C)(C)C | solubility (mole fraction) | 0.045 |

* * *

assaySetup: in ethanol, 273.15 K
valueKind: solubility (mole fraction)

| smilesText | valueKind | recordedResult |
| --- | --- | --- |
| CC(C)N1C(=O)N(c2ccccc2)CSC1=NC(C)(C)C | solubility (mole fraction) | 0.00539 |

* * *

assaySetup: in methanol, 278.15 K
valueKind: solubility (mole fraction)

| smilesText | valueKind | recordedResult |
| --- | --- | --- |
| CC(C)N1C(=O)N(c2ccccc2)CSC1=NC(C)(C)C | solubility (mole fraction) | 0.00497 |

* * *

assaySetup: in n-octanol, 313.15 K
valueKind: solubility (mole fraction)

| smilesText | recordedResult |
| --- | --- |
| CC(C)N1C(=O)N(c2ccccc2)CSC1=NC(C)(C)C | 0.063 |

* * *

assaySetup: in methanol, 273.15 K
valueKind: solubility (mole fraction)

| smilesText | recordedResult |
| --- | --- |
| CC(C)N1C(=O)N(c2ccccc2)CSC1=NC(C)(C)C | 0.00377 |

* * *

assaySetup: in methanol, 288.15 K
valueKind: solubility (mole fraction)

| smilesText | recordedResult |
| --- | --- |
| CC(C)N1C(=O)N(c2ccccc2)CSC1=NC(C)(C)C | 0.00797 |

* * *

assaySetup: in n-octanol, 298.15 K
valueKind: solubility (mole fraction)

| smilesText | recordedResult |
| --- | --- |
| CC(C)N1C(=O)N(c2ccccc2)CSC1=NC(C)(C)C | 0.0321 |

* * *

assaySetup: in isopropanol, 303.15 K
valueKind: solubility (mole fraction)

| smilesText | recordedResult |
| --- | --- |
| CC(C)N1C(=O)N(c2ccccc2)CSC1=NC(C)(C)C | 0.0254 |

* * *

assaySetup: in toluene, 318.15 K

| smilesText | solubility (mole fraction) |
| --- | --- |
| CC(C)N1C(=O)N(c2ccccc2)CSC1=NC(C)(C)C | 0.227 |

* * *

assaySetup: in acetone, 298.15 K
valueKind: solubility (mole fraction)

| smilesText | valueKind | recordedResult |
| --- | --- | --- |
| CC(C)N1C(=O)N(c2ccccc2)CSC1=NC(C)(C)C | solubility (mole fraction) | 0.0699 |

* * *

assaySetup: in acetonitrile, 283.15 K

| smilesText | solubility (mole fraction) |
| --- | --- |
| CC(C)N1C(=O)N(c2ccccc2)CSC1=NC(C)(C)C | 0.0101 |

* * *

assaySetup: in ethyl acetate, 308.15 K

| smilesText | solubility (mole fraction) |
| --- | --- |
| CC(C)N1C(=O)N(c2ccccc2)CSC1=NC(C)(C)C | 0.136 |

* * *

assaySetup: in isopropanol, 283.15 K

| smilesText | solubility (mole fraction) |
| --- | --- |
| CC(C)N1C(=O)N(c2ccccc2)CSC1=NC(C)(C)C | 0.0103 |

* * *

assaySetup: in n-butanol, 278.15 K

| smilesText | solubility (mole fraction) |
| --- | --- |
| CC(C)N1C(=O)N(c2ccccc2)CSC1=NC(C)(C)C | 0.00908 |

* * *

assaySetup: in n-octanol, 293.15 K

| smilesText | solubility (mole fraction) |
| --- | --- |
| CC(C)N1C(=O)N(c2ccccc2)CSC1=NC(C)(C)C | 0.0251 |

* * *

assaySetup: in ethyl acetate, 273.15 K
valueKind: solubility (mole fraction)

| smilesText | recordedResult |
| --- | --- |
| CC(C)N1C(=O)N(c2ccccc2)CSC1=NC(C)(C)C | 0.0372 |

* * *

assaySetup: in water, 288.15 K

| smilesText | solubility (mole fraction) |
| --- | --- |
| CC(C)N1C(=O)N(c2ccccc2)CSC1=NC(C)(C)C | 5.08e-05 |
